tested on: galium (catchweed bedstraw, Galium aparine); experiment: Test C pre-/postemergence: galium; format: in vivo; settings: Postemergence, 31 g ai/ha; scale 0 to 100 (0 no effect, 100 complete control)
The following compounds are listed with their measured Plant response rating, Galium values.
Hey, just send me the number, nothing else.

Consider the following illustrative entries.
Cc1nn(-c2ccc(F)cc2)nc1Oc1ccnc(C(F)(F)F)c1 | 60
CCCc1nn(-c2ccc(F)cc2)nc1Cc1ccnc(C(F)(F)F)c1 | 60
Cc1nn(-c2ccc(C(F)(F)F)c(F)c2)nc1Cc1ccnc(C(F)(F)F)c1 | 75

Plant response rating, Galium of Cc1nn(-c2ccc(C(F)(F)F)cc2)nc1Cc1cccc(C(F)(F)F)c1 , assay on galium (catchweed bedstraw, Galium aparine), is 70

Entry Cc1nn(-c2ccc(C(F)(F)F)cc2)nc1Cc1ccnc(C(F)(F)F)c1 , galium (catchweed bedstraw, Galium aparine) data, Plant response rating, Galium value: 80

With galium (catchweed bedstraw, Galium aparine) as the test system, Cc1nn(-c2ccnc(C(F)(F)F)c2)nc1Cc1ccnc(C(F)(F)F)c1 showed Plant response rating, Galium of 45

---

system: velvetleaf (Abutilon theophrasti); assay: Test A pre-/postemergence: velvetleaf; format: in vivo; settings: Preemergence, 500 g ai/ha; 0 to 100 scale, 0 is no effect, 100 is complete control
measured-endpoint: Plant response rating, Velvetleaf
Hey, just send me the number, nothing else.

Before answering, review these 2 worked examples.
Cc1nn(-c2cccc(I)c2)nc1C(=O)c1cccc(C(F)(F)F)c1 | 0
Cc1nn(-c2ccc(F)cc2)nc1Oc1ccnc(OCC(F)(F)F)c1 | 0

Please fill in: Plant response rating, Velvetleaf reported for Cc1nn(-c2cccc(Cl)c2)nc1C(=O)c1cccc(C(F)(F)F)c1 = 0

Lab note: Cc1nn(-c2ccc(F)cc2)nc1Cc1ccnc(OCC(F)(F)F)c1 gave Plant response rating, Velvetleaf of 0

Entry Cc1nn(-c2ccccc2[N+](=O)[O-])nc1C(=O)c1cccc(C(F)(F)F)c1 — recorded Plant response rating, Velvetleaf = 0

Sure, the documented Plant response rating, Velvetleaf for Cc1nn(-c2ccnc(F)c2)nc1C(=O)c1cccc(C(F)(F)F)c1 is 10

Plant response rating, Velvetleaf recorded for this molecule, OCc1nn(-c2ccc(C(F)(F)F)cc2)nc1Oc1cccc(C(F)(F)F)c1 , is 10

---

tested on: blackgrass (Alopecurus myosuroides); test: Test C pre-/postemergence: blackgrass; type: in vivo; settings: Postemergence, 125 g ai/ha; scale 0 to 100, 0 no effect, 100 complete control
measured-endpoint: Plant response rating, Blackgrass
Just the number.

Some solved entries appear below for comparison.
Cc1nn(-c2ccc(C(F)(F)F)c(F)c2)nc1Cc1ccnc(C(F)(F)F)c1 [Compound 162] | 85
Cc1nn(-c2ccc(F)cc2)nc1Cc1ccnc(C(F)(F)F)c1 [Compound 16] | 40
Cc1nn(-c2ccnc(C(F)(F)F)c2)nc1Cc1ccnc(C(F)(F)F)c1 [Compound 137] | 35
CCCc1nn(-c2ccc(F)cc2)nc1Cc1ccnc(C(F)(F)F)c1 [Compound 153] | 70

Let me check: Cc1nn(-c2ccc(C(F)(F)F)cc2)nc1Cc1ccnc(C(F)(F)F)c1 [Compound 47] , system blackgrass (Alopecurus myosuroides), measured Plant response rating, Blackgrass is 60

---

system: ragweed (common ragweed, Ambrosia elation); experiment: Test C pre-/postemergence: ragweed; type: in vivo; settings: Postemergence, 125 g ai/ha; scale 0 to 100, 0 no effect, 100 complete control
measured-endpoint: Plant response rating, Ragweed
Please reply with the value in numeric form only.

For orientation, consider the following solved cases.
CCOc1nn(-c2ccc(F)cc2)nc1Cc1ccnc(C(F)F)c1 | 70
Cc1nn(-c2ccc(C(F)(F)F)cc2)nc1Cc1ccnc(C(F)(F)F)c1 | 75
Cc1nn(-c2ccc(C(F)(F)F)cc2)nc1Cc1cccc(C(F)(F)F)c1 | 65

Could you now look at the following compound, please?
Entry CCCc1nn(-c2ccc(C(F)(F)F)c(F)c2)nc1Oc1ccnc(C(F)(F)F)c1 ; Plant response rating, Ragweed = 95

---

Reported Plant response rating, Ryegrass, Italian values for the following molecules.
test system: ryegrass, Italian (Italian ryegrass, Lolium multiflorum); test: Test C pre-/postemergence: ryegrass, Italian; format: in vivo; conditions: Postemergence, 125 g ai/ha; scale 0 to 100, 0 no effect, 100 complete control
Keep it simple and answer with nothing but the number.

Please review the following examples before continuing.
CCc1nn(-c2ccc(F)cc2)nc1Oc1ccnc(C(F)(F)F)c1 [Compound 166] | 20
Cc1nn(-c2ccc(C(F)(F)F)c(F)c2)nc1Cc1ccnc(C(F)(F)F)c1 [Compound 162] | 60
Cc1nn(-c2ccc(F)cc2)nc1Oc1ccnc(C(F)(F)F)c1 [Compound 129] | 30
CCOc1nn(-c2ccc(F)cc2)nc1Cc1ccnc(C(F)F)c1 [Compound 195] | 60
CCCc1nn(-c2ccc(C(F)(F)F)c(F)c2)nc1Oc1ccnc(C(F)(F)F)c1 [Compound 185] | 25

Entry Cc1nn(-c2ccc(C(F)(F)F)cc2)nc1Cc1ccnc(C(F)(F)F)c1 [Compound 47] , ryegrass, Italian (Italian ryegrass, Lolium multiflorum) data, Plant response rating, Ryegrass, Italian value: 75

---

Tested on: morningglory (Ipomoea spp.)
Assay: Test A pre-/postemergence: morningglory
Assay type: in vivo
Details: Preemergence, 500 g ai/ha; 0 to 100 scale (0 no effect, 100 complete control)
Text: Seeds of barnyardgrass (Echinochloa crus-galli), crabgrass, large (large crabgrass, Digitaria sanguinalis), foxtail, giant (giant foxtail, Setaria faberii), morningglory (Ipomoea spp.), pigweed (Amaranthus retroflexus), velvetleaf (Abutilon theophrasti), wheat (Triticum aestivum), and corn (Zea mays) were planted into a blend of loam soil and sand and treated preemergence with a directed soil spray using test chemicals formulated in a non-phytotoxic solvent mixture which included a surfactant. […]
Catalogue of Plant response rating, Morningglory values
Just the number, please, no unit attached.

Consider the following illustrative entries.
Cc1nn(-c2ccc(F)c(F)c2)nc1Oc1ccnc(C(F)(F)F)c1 | 60
CCc1nn(-c2cccc(C(F)(F)F)c2)nc1Cc1cccc(C(F)(F)F)c1 | 0
CC(C)c1nn(-c2ccc(F)cc2)nc1Cc1ccnc(C(F)(F)F)c1 | 0

Lab note: measured Plant response rating, Morningglory of CCCc1nn(-c2ccc(C(F)(F)F)c(F)c2)nc1Oc1ccnc(C(F)(F)F)c1 was 100

---

Each item that follows carries a reported Plant response rating, Johnsongrass.
system: johnsongrass (Sorghum halepense); assay: Test C pre-/postemergence: johnsongrass; type: in vivo; details: Preemergence, 125 g ai/ha; scale 0 to 100, 0 no effect, 100 complete control
No unit in the answer, please; the number alone is enough.

Example cases with answers are listed next.
CCOc1nn(-c2ccc(F)cc2)nc1Cc1ccnc(C(F)F)c1 [Compound 195] | 98
Cc1nn(-c2ccc(F)cc2)nc1Oc1ccnc(C(F)(F)F)c1 [Compound 129] | 85

The reported Plant response rating, Johnsongrass of the compound CCc1nn(-c2ccc(F)cc2)nc1Oc1ccnc(C(F)(F)F)c1 [Compound 166] was 75

GET /value?item= Fc1ccc(-n2nc(Cc3ccnc(C(F)(F)F)c3)c(OCC(F)(F)F)n2)cc1 [Compound 142] &field=Plant response rating, Johnsongrass returns 100

Per the record, Cc1nn(-c2ccc(F)c(F)c2)nc1Oc1ccnc(C(F)(F)F)c1 [Compound 145] has Plant response rating, Johnsongrass of 100

Reported Plant response rating, Johnsongrass for Cc1nn(-c2ccc(C(F)(F)F)cc2)nc1Cc1ccnc(C(F)(F)F)c1 [Compound 47] was 60

---

Tested on: velvetleaf (Abutilon theophrasti)
Experiment: Test A pre-/postemergence: velvetleaf
Type: in vivo
Conditions: Preemergence, 125 g ai/ha; 0 to 100 scale where 0 is no effect and 100 is complete control
Source text: Seeds of barnyardgrass (Echinochloa crus-galli), crabgrass, large (large crabgrass, Digitaria sanguinalis), foxtail, giant (giant foxtail, Setaria faberii), morningglory (Ipomoea spp.), pigweed (Amaranthus retroflexus), velvetleaf (Abutilon theophrasti), wheat (Triticum aestivum), and corn (Zea mays) were planted into a blend of loam soil and sand and treated preemergence with a directed soil spray using test chemicals formulated in a non-phytotoxic solvent mixture which included a surfactant. […]
measured-endpoint: Plant response rating, Velvetleaf
Please reply with the number alone, leaving off any unit.

CCc1nn(-c2ccc(C(F)(F)F)cc2)nc1Cn1cc(C(F)(F)F)nc1Cl | 30
Cc1nn(-c2ccc(C(F)(F)F)cc2)nc1Oc1ccc(Cl)c(C(F)(F)F)c1 | 0

Lookup result for CCCc1nn(-c2ccc(F)cc2)nc1Cc1cccc(C(F)(F)F)c1 ; measured Plant response rating, Velvetleaf: 20

---

Entries annotated with measured Plant response rating, Bermudagrass
System: bermudagrass (Cynodon dactylon)
Test: Test C pre-/postemergence: bermudagrass
Format: in vivo
Conditions: Postemergence, 125 g ai/ha; scale 0 to 100, 0 no effect, 100 complete control
Text: […] Treated plants and controls were maintained in a greenhouse for 13 to 15 days, after which time all species were compared to controls and visually evaluated. […]
Provide a numeric answer; units are not to be included.

Cc1nn(-c2ccc(F)cc2)nc1Oc1ccnc(C(F)(F)F)c1 | 60

Lookup result for Fc1ccc(-n2nc(Cc3ccnc(C(F)(F)F)c3)c(OCC(F)(F)F)n2)cc1 ; measured Plant response rating, Bermudagrass: 75

Given item Cc1nn(-c2ccc(C(F)(F)F)cc2)nc1Cc1ccnc(C(F)(F)F)c1 , the value recorded as its Plant response rating, Bermudagrass is 55

Measured Plant response rating, Bermudagrass, Cc1nn(-c2ccc(F)c(F)c2)nc1Oc1ccnc(C(F)(F)F)c1 : 75
